Reference source: patent US11878981B2

Test: Assay B: Microsomal clearance
Type: in vitro ADME, human
Details: pooled liver microsomes, 37° C., 1 mg/ml protein, test compound 1 μM, NADPH
Protocol: Assay B: Microsomal Clearance: The metabolic degradation of the test compound is assayed at 37° C. with pooled liver microsomes. […] An aliquot of the supernatant is assayed by LC-MS/MS for the amount of parent compound. The half-life (t½ INVITRO) is determined by the slope of the semilogarithmic plot of the concentration-time profile. The intrinsic clearance (CL_[…]) is calculated by considering the amount of protein in the incubation: CL _[…] […]
measured-metric: human LM [% Qh]

Below, 3 compounds whose answers are already recorded.
## Input Quick one: human LM [% Qh] for Cn1cnc2cnn(Cc3nc(C[C@H](O)c4cc5cc(F)ccc5o4)no3)c(=O)c21 [Example 10] ?
## Output <23 % Qh

## Input Would you kindly share the measured human LM [% Qh] for Cn1c(=O)n(C)c2c(=O)n(Cc3nc(C[C@H](O)c4cc5ccccc5s4)no3)ncc21 [Example 14] ?
## Output <23 % Qh

## Input Suppose we examine the compound Cn1c(=O)n(C)c2c(=O)n(Cc3nc(C[C@H](O)c4cc5cc(Cl)ccc5o4)no3)ncc21 [Example 15] ; what human LM [% Qh] value has been reported?
## Output <23 % Qh

---
## Input Param item = Cn1c(=O)n(C)c2c(=O)n(Cc3nc(C[C@H](O)c4ccc(F)cc4)no3)ncc21 [Example 3] ; retrieve measured human LM [% Qh].
## Output <23 % Qh

## Input Could you tell me which human LM [% Qh] is on file for Cn1cnc2cnn(Cc3nc(C[C@H](O)c4ccc(Br)cc4)no3)c(=O)c21 [Example 8] ?
## Output <23 % Qh

## Input # get_value(readout='human LM [% Qh]', item= Cn1cnc2cnn(Cc3nc(C[C@H](O)c4cc5ccc(F)cc5s4)no3)c(=O)c21 [Example 9] )
## Output 41 % Qh

## Input Returns the measured human LM [% Qh] for the input compound. Input: Cc1ccc([C@@H](O)Cc2noc(Cn3ncc4ncn(C)c4c3=O)n2)cc1 [Example 6]
## Output <23 % Qh

## Input Requested field: human LM [% Qh]. Item: Cn1cnc2cnn(Cc3nc(C[C@H](O)c4ccc5c(c4)OCO5)no3)c(=O)c21 [Example 7]
## Output <23 % Qh
